Listed here are compounds together with their documented % Hit rate.
# Tested on: SN12C
# test_method_notes: 11×7 synergism hit rate
# Assay type: cell-based
# recorded_conditions: Renal Cancer SN12C, combination with SR16388
Report as a plain number; the unit % is understood.

substance_smiles: CC(=O)O[C@@]12CO[C@@H]1C[C@H](O)[C@@]1(C)C(=O)[C@H](O)C3=C(C)[C@@H](OC(=O)[C@H](O)[C@@H](NC(=O)OC(C)(C)C)c4ccccc4)C[C@@](O)([C@@H](OC(=O)c4ccccc4)[C@H]21)C3(C)C
system: SN12C
reading: 8
--
substance_smiles: CC[C@]1(O)C[C@@H]2CN(CCc3c([nH]c4ccccc34)[C@@](C(=O)OC)(c3cc4c(cc3OC)N(C)[C@H]3[C@@](O)(C(=O)OC)[C@H](OC(C)=O)[C@]5(CC)C=CCN6CC[C@]43[C@@H]65)C2)C1
system: SN12C
reading: 1
--
substance_smiles: CC[C@]1(O)C[C@H]2CN(CCc3c([nH]c4ccccc34)[C@@](C(=O)OC)(c3cc4c(cc3OC)N(C=O)[C@H]3[C@@](O)(C(=O)OC)[C@H](OC(C)=O)[C@]5(CC)C=CCN6CC[C@]43[C@@H]65)C2)C1
system: SN12C
reading: 14

Proceeding to the next compound to report its % Hit rate.
Please look up its % Hit rate: CC(=O)O[C@H]1C(=O)[C@@]2(C)[C@H]([C@H](OC(=O)c3ccccc3)[C@]3(O)C[C@H](OC(=O)[C@H](O)[C@@H](NC(=O)c4ccccc4)c4ccccc4)C(C)=C1C3(C)C)[C@]1(OC(C)=O)CO[C@@H]1C[C@@H]2O
13
